molecular target: Matrix metalloproteinase-9 (Homo sapiens, UniProt P14780); assay: Inhibition of MMP-9 (unknown origin)
Sequence (P14780 whole entry): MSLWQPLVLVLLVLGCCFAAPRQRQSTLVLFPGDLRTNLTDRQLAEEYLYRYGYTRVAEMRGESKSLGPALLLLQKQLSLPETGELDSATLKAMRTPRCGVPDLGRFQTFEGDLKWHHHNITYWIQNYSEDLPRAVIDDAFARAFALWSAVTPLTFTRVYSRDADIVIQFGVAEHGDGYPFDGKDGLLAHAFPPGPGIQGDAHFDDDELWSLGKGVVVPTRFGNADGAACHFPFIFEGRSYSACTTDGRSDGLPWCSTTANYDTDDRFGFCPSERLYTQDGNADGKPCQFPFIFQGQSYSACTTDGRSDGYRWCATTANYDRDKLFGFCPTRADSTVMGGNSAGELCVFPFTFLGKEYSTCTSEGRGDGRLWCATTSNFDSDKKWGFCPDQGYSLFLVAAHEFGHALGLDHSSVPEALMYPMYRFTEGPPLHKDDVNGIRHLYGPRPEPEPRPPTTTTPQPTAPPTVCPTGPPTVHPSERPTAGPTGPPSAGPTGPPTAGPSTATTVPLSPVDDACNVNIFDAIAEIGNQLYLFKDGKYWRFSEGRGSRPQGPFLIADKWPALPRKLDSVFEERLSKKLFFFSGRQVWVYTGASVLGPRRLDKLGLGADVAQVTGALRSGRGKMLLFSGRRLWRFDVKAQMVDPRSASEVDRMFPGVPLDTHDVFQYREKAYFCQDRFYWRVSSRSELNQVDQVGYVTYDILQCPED
pIC50: −log10 of the molar value.
property measured: pIC50

A = CNC(=O)[C@@H](NC(=O)[C@H](CC(C)C)NC(=O)[C@@H](S)CCN1C(=O)N(C)C(C)(C)C1=O)C(C)(C)C
B = O=C(O)CCC(NC(=O)Cc1ccc(Br)cc1)C(=O)NCc1ccc([N+](=O)[O-])cc1 (configuration not stated)
*Q* Could you tell me which of A and B has the lower pIC50 reading? // respond with label for picked entry
*A* B
(B: 5.32, A: 7.57)

----------
Target: Interstitial collagenase (Homo sapiens)
Sequence (P03956 whole entry): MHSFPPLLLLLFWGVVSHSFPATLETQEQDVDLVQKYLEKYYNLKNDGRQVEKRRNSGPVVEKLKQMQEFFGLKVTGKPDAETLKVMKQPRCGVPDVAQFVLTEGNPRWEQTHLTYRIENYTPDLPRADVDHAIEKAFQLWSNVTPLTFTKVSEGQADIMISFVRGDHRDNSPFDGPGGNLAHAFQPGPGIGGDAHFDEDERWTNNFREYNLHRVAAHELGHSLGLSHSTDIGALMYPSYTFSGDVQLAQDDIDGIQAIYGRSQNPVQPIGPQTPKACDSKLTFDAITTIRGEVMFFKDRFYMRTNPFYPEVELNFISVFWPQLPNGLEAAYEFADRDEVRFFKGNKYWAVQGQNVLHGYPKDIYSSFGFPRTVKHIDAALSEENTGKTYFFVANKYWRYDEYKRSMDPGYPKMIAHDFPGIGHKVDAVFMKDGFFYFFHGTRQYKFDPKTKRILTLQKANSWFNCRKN
pKi: −log10 of the molar value.
property measured: pKi

*Q* State the recorded pKi for this entry: O=C(C[C@H](CSc1ccccc1)C(=O)O)c1ccc(-c2ccc(Cl)cc2)cc1
*A* < 5.30

----------
target: 72 kDa type IV collagenase (Homo sapiens)
Sequence (P08253 whole entry): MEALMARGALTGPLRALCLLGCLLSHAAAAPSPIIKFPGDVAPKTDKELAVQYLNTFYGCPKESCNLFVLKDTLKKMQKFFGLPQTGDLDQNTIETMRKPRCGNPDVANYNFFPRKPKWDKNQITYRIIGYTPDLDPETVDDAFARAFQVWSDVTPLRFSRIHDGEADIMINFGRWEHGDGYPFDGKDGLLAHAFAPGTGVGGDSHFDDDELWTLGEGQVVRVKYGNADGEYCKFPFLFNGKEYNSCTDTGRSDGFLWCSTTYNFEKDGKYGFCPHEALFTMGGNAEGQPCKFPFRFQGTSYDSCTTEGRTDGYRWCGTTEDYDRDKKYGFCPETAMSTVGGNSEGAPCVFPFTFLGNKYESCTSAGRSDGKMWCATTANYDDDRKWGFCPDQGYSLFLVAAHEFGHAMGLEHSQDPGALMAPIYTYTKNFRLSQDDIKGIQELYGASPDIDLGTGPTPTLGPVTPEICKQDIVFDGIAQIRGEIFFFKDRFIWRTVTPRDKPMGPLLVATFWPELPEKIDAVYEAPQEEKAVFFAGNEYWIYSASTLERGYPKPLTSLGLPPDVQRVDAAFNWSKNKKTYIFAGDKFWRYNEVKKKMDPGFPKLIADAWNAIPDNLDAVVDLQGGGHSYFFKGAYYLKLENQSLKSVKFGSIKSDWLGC
property measured: IC50 (µM)
Form entry: value (µM) — number only.

*Q* For 72 kDa type IV collagenase (Homo sapiens), provide IC50 of O=C(O)CCC(NC(=O)Cc1ccc(Br)cc1)C(=O)NCc1ccc([N+](=O)[O-])cc1 (stereo unspecified) please.
*A* 6.4

----------
target: Neutrophil collagenase (Homo sapiens); assay: Inhibition of MMP-8 (unknown origin)
Sequence (P22894 whole entry): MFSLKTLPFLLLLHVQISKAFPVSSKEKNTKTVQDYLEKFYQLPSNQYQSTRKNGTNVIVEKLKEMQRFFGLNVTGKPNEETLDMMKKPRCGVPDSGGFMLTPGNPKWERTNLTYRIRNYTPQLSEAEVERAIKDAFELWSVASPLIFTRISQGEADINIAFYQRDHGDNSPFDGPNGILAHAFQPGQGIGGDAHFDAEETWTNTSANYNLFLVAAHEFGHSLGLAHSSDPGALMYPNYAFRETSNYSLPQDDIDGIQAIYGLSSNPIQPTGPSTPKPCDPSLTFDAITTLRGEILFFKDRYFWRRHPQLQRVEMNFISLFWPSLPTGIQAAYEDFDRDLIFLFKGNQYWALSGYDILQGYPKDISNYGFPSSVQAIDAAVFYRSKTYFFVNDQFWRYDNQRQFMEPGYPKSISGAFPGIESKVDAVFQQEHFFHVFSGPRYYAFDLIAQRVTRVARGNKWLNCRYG
property measured: IC50 (µM)
I only need the number, in µM, no unit after it.

*Q* Record request: IC50 value, item O=C(O)CCC(NC(=O)Cc1ccc(Br)cc1)C(=O)NCc1ccc([N+](=O)[O-])cc1 (stereo unspecified)
*A* 206
